- Tested on: vasopressor response of angiotensin II
- MEASUREMENT NOTES: AII Challenge: antagonism of angiotensin II vasopressor response
- Type: in vivo
- CONDITIONS: Rattus norvegicus, iv, 3 h, 3 mg/kg I.V.; AII 0.05 mcg/kg IV; 180 min post dose
OUTCOME MEASURE: inhibition in vivo at 3 mg/kg (%)

INSERT INTO assay_data (molecule, test_system, outcome_measure, recorded_measurement) VALUES
  ('CCCCc1nc2ccc([C@@]3(C)C[C@@H]4CCCN4O3)cc2c(=O)n1Cc1ccc(-c2ccccc2-c2nnn[nH]2)cc1 (relative stereo)', 'vasopressor response of angiotensin II', 'inhibition in vivo at 3 mg/kg', 83),
  ('CCCCc1nc2ccc([C@@]3(C)C[C@@H]4CCCCN4O3)cc2c(=O)n1Cc1ccc(-c2ccccc2-c2nnn[nH]2)cc1 (relative stereo)', 'vasopressor response of angiotensin II', 'inhibition in vivo at 3 mg/kg', 71),
  ('CCCCc1nc2ccc([C@]3(C)C[C@@H]4CCCCN4O3)cc2c(=O)n1Cc1ccc(-c2ccccc2-c2nnn[nH]2)cc1 (relative stereo)', 'vasopressor response of angiotensin II', 'inhibition in vivo at 3 mg/kg', 81);

====

Attribute: inhibition in vivo at 3 mg/kg
- System: vasopressor response of angiotensin II
- MEASUREMENT NOTES: AII Challenge: antagonism of angiotensin II vasopressor response
- Type: in vivo
- CONDITIONS: Rattus norvegicus, iv, 1 h, 3 mg/kg I.V.; AII 0.05 mcg/kg IV; 60 min post dose
OUTCOME MEASURE: inhibition in vivo at 3 mg/kg (%)

INSERT INTO results (molecule, test_system, recorded_measurement) VALUES
  ('CCCCc1nc2ccc([C@@H]3C[C@H]4CCC(C)(C)N4O3)cc2c(=O)n1Cc1ccc(-c2ccccc2-c2nnn[nH]2)cc1 (relative stereo)', 'vasopressor response of angiotensin II', 78),
  ('CCCCc1nc2ccc([C@@H]3C[C@H]4CCCN4O3)cc2c(=O)n1Cc1ccc(-c2ccccc2-c2nnn[nH]2)cc1 (racemic)', 'vasopressor response of angiotensin II', 40),
  ('CCCCc1nc2ccc([C@]3(C)C[C@@H]4CCCCN4O3)cc2c(=O)n1Cc1ccc(-c2ccccc2-c2nnn[nH]2)cc1 (relative stereo)', 'vasopressor response of angiotensin II', 95),
  ('CCCCc1nc2ccc([C@]3(C)C[C@@H]4CCCN4O3)cc2c(=O)n1Cc1ccc(-c2ccccc2-c2nnn[nH]2)cc1 (relative stereo)', 'vasopressor response of angiotensin II', 74),
  ('CCCCc1nc2ccc([C@@]3(C)C[C@@H]4CCCCN4O3)cc2c(=O)n1Cc1ccc(-c2ccccc2-c2nnn[nH]2)cc1 (relative stereo)', 'vasopressor response of angiotensin II', 85),
  ('CCCCc1nc2ccc([C@@H]3C[C@H]4CCCCN4O3)cc2c(=O)n1Cc1ccc(-c2ccccc2-c2nnn[nH]2)cc1 (relative stereo)', 'vasopressor response of angiotensin II', 73),
  ('CCCCc1nc2ccc(C3ON4CCCC4C3C(=O)OCC)cc2c(=O)n1Cc1ccc(-c2ccccc2-c2nnn[nH]2)cc1 (stereo not shown)', 'vasopressor response of angiotensin II', 49),
  ('CCCCc1nc2ccc([C@]3(C)C[C@@H]4CCC(C)(C)N4O3)cc2c(=O)n1Cc1ccc(-c2ccccc2-c2nnn[nH]2)cc1 (relative stereo)', 'vasopressor response of angiotensin II', 92),
  ('CCCCc1nc2ccc([C@H]3C[C@]4(C)CCCCN4O3)cc2c(=O)n1Cc1ccc(-c2ccccc2-c2nnn[nH]2)cc1 (relative stereo)', 'vasopressor response of angiotensin II', 66),
  ('CCCCc1nc2ccc(C3(C)CC4c5ccccc5CCN4O3)cc2c(=O)n1Cc1ccc(-c2ccccc2-c2nnn[nH]2)cc1 (stereo not shown)', 'vasopressor response of angiotensin II', 93);

====

- Tested on: vasopressor response of angiotensin II
- MEASUREMENT NOTES: AII Challenge: antagonism of angiotensin II vasopressor response;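 on Response Average Change: post-dose Angiotensin II-evoked rise in systolic blood pressure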
- Assay type: in vivo
- CONDITIONS: 5 mg/kg P.O.; AII 0.1 mcg/kg IV; 30 min post dose
Attribute: Response Average Change
OUTCOME MEASURE: Response Average Change (mmHg)

INSERT INTO measurements (molecule, recorded_measurement) VALUES
  ('CCCCc1nc2ccc([C@@H]3C[C@H]4c5ccccc5CCN4O3)cc2c(=O)n1Cc1ccc(-c2ccccc2-c2nnn[nH]2)cc1 (relative stereo)', 35),
  ('CCCCc1nc2ccc(C3ON4CCCC4C3C(=O)OCC)cc2c(=O)n1Cc1ccc(-c2ccccc2-c2nnn[nH]2)cc1 (stereo not shown)', 43.5),
  ('CCCCc1nc2ccc([C@]3(C)C[C@@H]4CCCN4O3)cc2c(=O)n1Cc1ccc(-c2ccccc2-c2nnn[nH]2)cc1 (relative stereo)', 22.5),
  ('CCCCc1nc2ccc(C3(C)CC4c5ccccc5CCN4O3)cc2c(=O)n1Cc1ccc(-c2ccccc2-c2nnn[nH]2)cc1 (stereo not shown)', 27.5),
  ('CCCCc1nc2ccc([C@@H]3C[C@H]4CCCN4O3)cc2c(=O)n1Cc1ccc(-c2ccccc2-c2nnn[nH]2)cc1 (racemic)', 22.5),
  ('CCCCc1nc2ccc([C@@]3(C)C[C@@H]4CCC(C)(C)N4O3)cc2c(=O)n1Cc1ccc(-c2ccccc2-c2nnn[nH]2)cc1 (relative stereo)', 21),
  ('CCCCc1nc2ccc([C@@H]3C[C@H]4CCC(C)(C)N4O3)cc2c(=O)n1Cc1ccc(-c2ccccc2-c2nnn[nH]2)cc1 (relative stereo)', 32.5);

====

Attribute: inhibition in vivo at 3 mg/kg
- Tested on: vasopressor response of angiotensin II
- MEASUREMENT NOTES: AII Challenge: antagonism of angiotensin II vasopressor response
- Format: in vivo
- CONDITIONS: Rattus norvegicus, iv, 2 h, 3 mg/kg I.V.; AII 0.05 mcg/kg IV; 120 min post dose
OUTCOME MEASURE: inhibition in vivo at 3 mg/kg (%)

INSERT INTO results (compound, recorded_measurement) VALUES
  ('CCCCc1nc2ccc([C@@H]3C[C@H]4CCC(C)(C)N4O3)cc2c(=O)n1Cc1ccc(-c2ccccc2-c2nnn[nH]2)cc1 (relative stereo) [Example 61]', 70),
  ('CCCCc1nc2ccc([C@@H]3C[C@H]4c5ccccc5CCN4O3)cc2c(=O)n1Cc1ccc(-c2ccccc2-c2nnn[nH]2)cc1 (relative stereo) [Example 63]', 71),
  ('CCCCc1nc2ccc([C@]3(C)C[C@@H]4CCCN4O3)cc2c(=O)n1Cc1ccc(-c2ccccc2-c2nnn[nH]2)cc1 (relative stereo) [Example 59]', 72);

Values from patent US5358951A
